- tested_target: T1, Aurora-A^CAKD (Aurora-A kinase domain, aa 122–403 C290A, C393A), unphosphorylated (human, UniProt O14965 122-403, C290A | C393A)
- T1 sequence: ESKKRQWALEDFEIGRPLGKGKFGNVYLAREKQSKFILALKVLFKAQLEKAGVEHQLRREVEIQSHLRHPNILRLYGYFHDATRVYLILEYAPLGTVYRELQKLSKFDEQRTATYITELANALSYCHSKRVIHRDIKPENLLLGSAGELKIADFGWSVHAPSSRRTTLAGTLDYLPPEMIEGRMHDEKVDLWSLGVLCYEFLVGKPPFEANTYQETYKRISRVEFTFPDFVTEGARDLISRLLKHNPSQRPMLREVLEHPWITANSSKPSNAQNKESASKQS
- experiment_summary: FP; competition with FAM-TPX2 7-43
measured_attribute: pIC50
Remember, pIC50 is on a log scale: it is -log10 of the molar concentration.

Ask: Look at this binder and give its reported pIC50. human CEP192 468–533 Y487A/F490A (domain or fragment, UniProt Q8TEP8 468-533, looked up, source: E. coli B834 RIL, purified (HisTrap, TEV cleavage, SEC); not shown: His6, N-terminal, cleaved; SUMO, N-terminal, cleaved) PQSVVYQNEEGRWVTDLAYATSANSKQNLNVSLSDEMNEDFRSGSEAFDLIAQDEEEFNKEHQFIQ
Reply: 4.85
